Values from patent US4847272A

Biological target: Thromboxane A2 Synthetase (Oryctolagus cuniculus, UniProt G1TAZ9)
Construct: The platelet microsome fraction was separated from rabbit and from human blood
Sequence (G1TAZ9 1-530): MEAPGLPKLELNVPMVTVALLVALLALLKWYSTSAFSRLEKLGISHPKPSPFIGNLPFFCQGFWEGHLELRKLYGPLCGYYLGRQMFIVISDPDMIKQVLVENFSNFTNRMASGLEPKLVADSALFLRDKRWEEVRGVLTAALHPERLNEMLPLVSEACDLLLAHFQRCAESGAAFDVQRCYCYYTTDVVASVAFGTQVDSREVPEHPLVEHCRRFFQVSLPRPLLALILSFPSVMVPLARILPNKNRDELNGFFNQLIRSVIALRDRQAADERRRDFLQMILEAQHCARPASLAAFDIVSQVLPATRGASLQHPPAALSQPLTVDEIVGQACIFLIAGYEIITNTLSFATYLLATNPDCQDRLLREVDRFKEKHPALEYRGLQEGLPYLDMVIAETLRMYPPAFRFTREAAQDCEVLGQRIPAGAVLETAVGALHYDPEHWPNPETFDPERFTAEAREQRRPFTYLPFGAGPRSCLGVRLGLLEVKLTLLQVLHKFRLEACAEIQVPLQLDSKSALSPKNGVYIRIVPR
Experiment: Inhibition of Thromboxane A2 Synthetase, rabbit platelet microsomes
Conditions: 1-[14C] arachidonic acid 0.1 mM, 1 minute at 22° C., read-out: IC50, concentration required to inhibit the activity of thromboxane synthetase by 50%
Structures can show the parent of a compound that is named as a salt.
Measured Quantity: pIC50
Lab note: report pIC50 as minus log10 of the concentration in molar units, number only.

>  <Compound>
O=C(O)C1CCc2cc(Cn3ccnc3)sc2C1 (stereo not shown) [Compound A, hydrochloride]

>  <Observed Value>
7.59

$$$$
>  <Compound>
O=C(O)C1CCc2sc(Cn3ccnc3)cc2C1 (stereo not shown) [Compound C, hydrochloride]

>  <Observed Value>
7.07

$$$$
>  <Compound>
O=C(O)C1=Cc2sc(Cn3ccnc3)cc2CC1

>  <Observed Value>
7.89

$$$$

Using known records, supply pIC50 for Cl.O=C(O)c1ccc(OCCn2ccnc2)cc1 [Dazoxiben, hydrochloride, reference compound]
6.97

* * *

Biological target: Thromboxane A2 Synthetase (Homo sapiens)
Construct: The platelet microsome fraction was separated from rabbit and from human blood
Sequence (P24557 whole entry): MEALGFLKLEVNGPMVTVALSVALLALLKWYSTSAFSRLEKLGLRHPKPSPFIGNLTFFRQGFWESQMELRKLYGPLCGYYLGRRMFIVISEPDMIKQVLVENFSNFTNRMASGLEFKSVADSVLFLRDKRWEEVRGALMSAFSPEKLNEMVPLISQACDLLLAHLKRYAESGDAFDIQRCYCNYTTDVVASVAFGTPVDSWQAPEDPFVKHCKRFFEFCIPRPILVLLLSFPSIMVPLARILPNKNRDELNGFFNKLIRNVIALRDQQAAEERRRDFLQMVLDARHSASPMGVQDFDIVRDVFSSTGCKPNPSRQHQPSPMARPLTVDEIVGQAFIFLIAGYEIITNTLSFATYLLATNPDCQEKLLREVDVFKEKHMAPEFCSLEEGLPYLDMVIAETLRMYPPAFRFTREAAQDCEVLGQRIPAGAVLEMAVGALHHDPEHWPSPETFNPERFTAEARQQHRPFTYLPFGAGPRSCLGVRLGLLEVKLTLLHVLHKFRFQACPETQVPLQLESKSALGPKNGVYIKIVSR
Assay: Inhibition of Thromboxane A2 Synthetase, human platelet microsomes
Conditions: 1-[14C] arachidonic acid 0.1 mM, 1 minute at 22° C., read-out: IC50, concentration required to inhibit the activity of thromboxane synthetase by 50%
Where a name gives a salt, the structure may show the parent alone.
Measured Quantity: IC50 (nM)
Your answer should be a plain number; it is taken to be in nM.

>  <Compound>
O=C(O)C1CCc2cc(Cn3ccnc3)sc2C1 (centres unmarked) [Compound A, hydrochloride]

>  <IC50, nM>
30

$$$$

Using known records, supply IC50 for "O=C(O)C1=Cc2sc(Cn3ccnc3)cc2CC1"
31
